Molecular target: TYK2-JH2 (Homo sapiens)
Construct: TYK JH2 enzyme mix (ChemPartnec CP20210818A-BV); purchased ChemPartner CP20210818A-BV
Sequence (P29597 589-875 limits assumed): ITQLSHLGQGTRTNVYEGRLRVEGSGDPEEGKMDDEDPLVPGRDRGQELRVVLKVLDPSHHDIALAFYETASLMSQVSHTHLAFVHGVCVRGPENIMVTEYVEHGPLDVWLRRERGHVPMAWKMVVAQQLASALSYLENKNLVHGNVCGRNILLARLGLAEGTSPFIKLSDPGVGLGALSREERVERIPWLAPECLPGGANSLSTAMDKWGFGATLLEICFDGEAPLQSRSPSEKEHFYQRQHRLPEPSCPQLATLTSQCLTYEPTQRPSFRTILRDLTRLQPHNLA
Test: TYK2-JH2 HTRF binding assay (ligand efficiency)
Details: calculated from IC50 of the TYK-JH2 binding assay (Equation 1)
Quantity kind: Ligand Efficiency

Below: 5 molecules and their reported Ligand Efficiency.
Molecule	Target or test system	Ligand Efficiency
Cc1cccc(Nc2cc(Nc3ccccc3NS(C)(=O)=O)ncn2)n1	TYK2-JH2 (Homo sapiens)	††† (†††: >0.39)
Cc1ccnc(Nc2cc(Nc3ccccc3C(N)=O)ncn2)n1	TYK2-JH2 (Homo sapiens)	††† (†††: >0.39)
Cc1ccnc(Nc2cc(Nc3ccccc3S(C)(=O)=O)ncn2)c1	TYK2-JH2 (Homo sapiens)	††† (†††: >0.39)
Cc1cc(Nc2cc(Nc3ncccc3S(C)(=O)=O)ncn2)ncc1NC1(C)COC1	TYK2-JH2 (Homo sapiens)	††† (†††: >0.39)
C[C@@H](c1ccc(Nc2cc(Nc3ncccc3S(C)(=O)=O)ncn2)nc1)N1CCCC12CCOCC2	TYK2-JH2 (Homo sapiens)	†† (††: 0.37-0.39)

[in] Give a short answer stating reported Ligand Efficiency for `C[C@@H](c1ccc(Nc2cc(Nc3ncccc3S(C)(=O)=O)ncn2)nc1)N1CC2(COC2)C1` .
[out] ††† (†††: >0.39)

[in] Give a short answer stating reported Ligand Efficiency for `Cc1cccc(Nc2cc(Nc3ncccc3C(N)=O)ncn2)n1` .
[out] ††† (†††: >0.39)
